system: A549 NSCLC; test: NCI tumour cell line growth inhibition, 48 h
Listing of recorded TGI by entry.
measured-property: TGI

CN(C)c1ccc(/C=C\C2=[N+](C)c3ccccc3C2(C)C)cc1 : > 62 µM
CN(C)C(=S)N=C(Nc1ccccc1)Nc1ccccc1 : > 100 µM
O=C(CC(=O)c1cccc2ccccc12)C(=O)Nc1ccc(Cl)cc1 : > 100 µM
CCOC(=O)c1csc(NC(=O)CN2CCOCC2)n1 : > 100 µM
Cc1cc(N(CCC#N)CCC#N)ccc1N=Nc1ccc(S(N)(=O)=O)cc1 : > 100 µM
CO/C(=N\N=C\c1ccc(C(F)(F)F)cc1)c1ccncc1 : > 10 µM

Reference source for all entries: PubChem BioAssay (NCI)
